outcome.measure: melting point

molecule	recorded.measurement
Nc1c([N+](=O)[O-])sc2ccccc12	220 to 221 °C
O=C(CBr)c1coc2ccccc12	136 to 137 °C
c1ccc(Cc2ccc3ccccc3c2)cc1	58 °C
CCOC(=O)C(C)(/C=C1\C(=O)C2(C)CCC1C2(C)C)/C=C1\C(=O)C2(C)CCC1C2(C)C (configuration not stated)	118 °C
Cc1ccc2nc(C)c(C)nc2c1	93 °C
CCCCc1cccc2ccccc12	-19.8 °C
CC(CO)(CO)CO	204 °C
CCOc1ccc2[nH]c(=S)sc2c1	199 °C
CCOC(=O)c1ccc(NC(=O)C(F)(F)C(F)(F)C(F)(F)C(F)(F)C(F)(F)C(F)(F)C(F)(F)C(F)(F)F)cc1	135 to 137 °C
O=[N+]([O-])c1ccc(Oc2ccc(C(F)(F)F)cc2Cl)cc1	68 °C

melting point lookup needed for O=CC1CC=CCC1 (configuration not stated) , thanks.
2 °C

Give the measured melting point of CO[Si](OC)(OC)c1ccccc1 .
-25 °C

Quick one: melting point for COc1ccc(C(=O)C2=NOC3C(=O)N(c4ccc(F)cc4)C(=O)C23)cc1 (configuration not stated) ?
141 °C

###

Recorded measurements of melting point, one per entry

entry.smiles	melting point
OCc1ccc(Br)cn1	59 to 60 °C
Nc1ccccc1C(=O)c1ccccc1C(=O)O	196 to 200 °C
CC(C)[C@@H](N)C(=O)O	302 to 303 °C
Cc1cc(C)c2c(=O)n(C)c(S)nc2n1	234 to 236 °C

We next turn to a different molecule, shown below.
Which measured melting point value corresponds to CCNc1ccc2c(C(F)(F)F)cc(=O)oc2c1 ?
158 to 159 °C

###

Quick reference: melting point of the listed items.
Entry rule: numbers only, all in °C.

Some molecules with known melting point results, for comparison:
molecule	melting point (°C)
CNC1CC2OC(C)(C1OC)n1c3ccccc3c3c4c(c5c6ccccc6n2c5c31)C(=O)NC4 (stereo not drawn)	270
COc1cc(C(=O)O)ccc1C	159
CCn1ccc2ccccc21	105

Reported melting point for O=C(c1c(F)c(F)c(F)c(F)c1F)c1c(F)c(F)c(F)c(F)c1F : what is it?
93

Please look up its melting point: CC1NC(=O)NC1=O (stereo not drawn)
151

Fill in the blank: the reported melting point of CCCCCC(O)CC(=O)CCc1ccc(OC)c(O)c1 (stereo not drawn) is ____.
31

Need melting point, item CN(C)c1ccc(C(C=C2C=Cc3ccccc3N2N=O)c2ccccc2)cc1 (stereo not drawn)
196

What value of melting point has been recorded for this entry: C=C1C(=CC=C2CCCC3(C)C2CCC3C(C)CCCC(C)(C)O)CC(O)CC1O (stereo not drawn)
115

###

melting point: recorded values

molecule	melting point
CC12CCC(/C(=C/Nc3ccc(Cl)cc3)C1=O)C2(C)C (configuration not stated)	167 to 169 °C
O=C(CCl)Nc1ccccc1C(F)(F)F	92 to 94 °C
Clc1cc(Br)ccc1I	35 to 37 °C
c1cnc2c(ccc3nccnc32)n1	249 to 252 °C
ON=C1CCCCCN1	168 to 170 °C

Need melting point, item Cc1ccc(-c2nnc(CCl)o2)cc1
121 to 123 °C

Look up melting point: O=Cc1cn(S(=O)(=O)c2ccccc2)c2ccccc12
156 to 157 °C

Any idea what melting point was measured for O=C1CCSc2ccc(Cl)cc21 ?
64 to 65 °C

What value of melting point has been reported for the following molecule? Cc1cc(N)ccc1I
50 to 55 °C

Value lookup for melting point; key = CCCCCCCCCCCCCCCC(=O)Oc1c[nH]c2ccc(Br)c(Cl)c12
53 to 57 °C

What measured melting point goes with N#Cc1ccc(OCCN2CCOCC2)cc1 ?
87 to 90 °C

Returns the measured melting point for the input molecule. Input: CCOC(=O)c1cc2cc([N+](=O)[O-])ccc2[nH]1
220 to 225 °C

###

Listing of recorded melting point by entry.

The following molecules have reported results that may help.
molecule	melting point
CC(C)n1cc(C#N)c(=O)n(Cc2ccccc2)c1=O	151 to 154 °C
Clc1ncnc2sc(-c3ccccc3)cc12	139 to 140 °C
Cc1cccc2c(O)cc(C(F)(F)F)nc12	128 to 131 °C
FC(Cl)(Cl)c1ccccc1	-26.8 °C
Cc1cc(C(=O)O)n[nH]1	241 to 242 °C
N#Cc1cccc(N2CCCC2)c1	84 to 85 °C

Fill blank: measured melting point of the molecule CC(=O)OOC(=O)c1ccccc1 is ____.
37 °C

Recorded melting point for CC(C)(C)OC(=O)NC(Cc1ccccc1)C(=O)NN (configuration not stated) , please?
131 to 136 °C

Can you share its melting point? I mean this molecule: O=c1cc(CN2CCOCC2)c2cc(O)c(O)cc2o1
232 °C

Endpoint output: melting point of FC(F)(Cl)C(Cl)(Cl)C(F)(F)Cl . Value?
-42.9 °C

Dear colleague, I am looking for the recorded melting point of the following molecule: CCC(=O)Oc1ccc(C(CC)=C(CC)c2ccc(OC(=O)CC)cc2)cc1
104 °C

# input molecule: O=C(CC1(O)Cc2ccccc21)c1ccccc1 (configuration not stated) ; wanted: its melting point
83 to 83.5 °C

Sample O=C(O)CCc1cccc(Br)c1 — what was its melting point?
76 to 78 °C

###

outcome.measure: melting point

As a guide, the following entries are already answered.
compound	melting point
CC1(C)OC(C)(C(O)(Cc2ccccc2)Cc2ccccc2)CCC1C(=O)O (stereo unspecified)	137 to 138 °C
COC(=O)CCC(C)C1CCC2C3C(OC(C)=O)C(Br)C4CCCCC4(C)C3CCC12C (stereo unspecified)	158 to 159 °C
CCC(C)(N)P(=O)(O)O (stereo unspecified)	268 to 272 °C
Cn1c(=O)oc2ccccc21	82 to 86 °C
CNC(=O)Oc1ccccc1C(C)C	94 °C

Which melting point value belongs to O=Cc1ccccc1N1CCN(Cc2ccccc2)CC1 ?
58 to 60 °C

Tell me the measured melting point of Cc1n[nH]c2c(=O)n(C(C)C)c(C)nc12 , please.
143 to 145 °C

// returns reported melting point for input O=C(O)c1ccc2cc[nH]c2c1
248 to 254 °C

Consider the compound shown here: CN1Cc2c(ccc3c2OCO3)C2C(O)Cc3cc4c(cc3C21)OCO4 (stereo unspecified) What is its recorded melting point?
136 °C

Look up melting point: C=CCn1c(SC)nc2nc(SC)n(C)c2c1=O
111 to 113 °C

Quick one: melting point for CC(=O)OCC(=O)C1(O)CCC2C3CCC4=CC(=O)CCC4(C)C3C(=O)CC21C (stereo unspecified) ?
222 °C

// melting point lookup, key: ON=C(c1ccccc1)c1ccccc1
140 to 144 °C

Field request: melting point | item: O=C(CBr)c1ccc(-c2ccccn2)s1
123 to 126 °C

Look up melting point for this compound: NC(=O)C(F)(Br)C(F)(F)F (stereo unspecified)
83 to 84 °C

Name the reported melting point value associated with the compound CCC1(N2CCCCC2)C(=O)NC(=O)NC1=O
215 °C

Name the reported melting point value associated with the compound c1ccc2cc3c(cc2c1)OCCOCCOCCOCCO3
117 to 118 °C

###

Each record here notes measured melting point.
Dear colleague, please return just the value in °C, with no unit written.

Known results for compounds:
compound	recorded.measurement
O=[N+]([O-])c1ccc(C=Cc2cccc(/C=C\c3ccc([N+](=O)[O-])cc3[N+](=O)[O-])c2)c([N+](=O)[O-])c1	243
CN=C(NC)c1cc(C(C)(C)C)c(O)c(C(C)(C)C)c1	206

Now consider the entry below.
Name the recorded melting point for O=C1CC(c2ccccc2)Oc2cc(O)ccc21 (stereo not given) .
188

###

Below, each entry is listed with its recorded melting point.

compound	melting point
Cc1cc(C(F)(F)F)n2nc(N)c(/N=N/c3c(Br)cc(Br)cc3Br)c2n1	98 to 100 °C
Nc1ccc(F)cc1N	86 to 88 °C
O=C1CC(C(=O)OCc2ccccc2)N1 (stereo not given)	137 to 138 °C
c1ccc(C2=C(c3ccccc3)C(c3ccccc3)C(c3ccccc3)=C2c2ccccc2)cc1	254 to 257 °C
Cc1nc2sc3c(c2c(=O)n1NC(=O)c1ccc(Cl)cc1)CCCC3	234 to 235 °C

Given the entry CC(=NO)c1ccn(S(=O)(=O)c2ccccc2)c1 , report its measured melting point.
162 to 165 °C

GET /values?readout=melting point&item= CN(C)c1ccc(C2Nn3c(COc4ccccc4)nnc3S2)cc1 (stereo not given)
143 to 144 °C

// query melting point value for entry N#Cc1c(NC(=O)c2ccccc2)sc2c1CCCC2
110 °C

// returns reported melting point for input C(=NCCN=Cc1ccccc1)c1ccccc1
52 to 54 °C

GET /values?readout=melting point&item= Cn1c(S)nnc1CC#N
188 to 190 °C
